test: cn = amount concentration of the nth substance listed, in mol/dm3; details: 313.15 K; 101 kPa; Liquid; c1 = 0.9
RECORDED ENDPOINT: viscosity (mPa·s)
Reply with just the number (in mPa·s).

// solved cases for viscosity follow
compound="OC[C@@H](O)[C@@H](O[C@H]1O[C@H](CO)[C@@H](O)[C@H](O)[C@H]1O)[C@H](O)[C@@H](O)CO [4-O-α-D-glucopyranosyl-D-glucitol] + O" unit_name=mPa·s endpoint_result=1.591
compound="OC[C@@H](O)[C@@H](O)CO [meso-1,2,3,4-butanetetrol] + O" unit_name=mPa·s endpoint_result=0.861
compound="OC[C@@H](O)[C@H](O)[C@@H](O)CO [xylitol] + O" unit_name=mPa·s endpoint_result=0.923

Prompt line: Return reported viscosity. Input compound: OC[C@@H](O)[C@@H](O)[C@H](O)[C@@H](O)CO [D-sorbitol] + O
Response line: 0.9849
